- TARGET_ENTITY: UniProt P05093
- Sequence (P05093 whole entry): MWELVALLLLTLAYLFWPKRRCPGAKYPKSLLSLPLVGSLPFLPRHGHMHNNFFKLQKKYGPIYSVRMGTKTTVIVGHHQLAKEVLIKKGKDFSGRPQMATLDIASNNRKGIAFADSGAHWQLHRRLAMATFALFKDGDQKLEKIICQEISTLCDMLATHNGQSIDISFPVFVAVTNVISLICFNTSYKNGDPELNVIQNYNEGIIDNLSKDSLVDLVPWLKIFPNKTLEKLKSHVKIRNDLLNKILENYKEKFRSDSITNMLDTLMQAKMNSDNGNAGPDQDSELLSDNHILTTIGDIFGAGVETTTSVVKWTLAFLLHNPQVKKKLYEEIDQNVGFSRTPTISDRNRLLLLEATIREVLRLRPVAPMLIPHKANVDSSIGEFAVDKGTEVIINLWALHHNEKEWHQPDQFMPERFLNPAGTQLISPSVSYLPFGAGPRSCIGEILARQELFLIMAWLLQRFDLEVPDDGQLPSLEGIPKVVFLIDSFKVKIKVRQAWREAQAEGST
- TEST_METHOD_NOTES: In vitro inhibition of human CYP17 expressed in Escherichia coli incubated with 2.5 uM of substrate progesterone in presence of 2.5 uM of compound
- PARTICULARS: probe progesterone
Classify as follows. Reported inhibition at 2.5 µM greater than or equal to 20%: True. Reported inhibition at 2.5 µM below: False.

// known answers, use as guide
>>> label_class("C(=C1\\CCc2ccccc21)/c1cccnc1")
"True"
>>> label_class("Fc1cccc2c1CC/C2=C/c1cccnc1")
"True"
>>> label_class("CCOc1ccc2c(c1)CC/C2=C\\c1cccnc1")
"False"
>>> label_class("COc1cc2c(cc1OC)/C(=C/c1cccnc1)CCC2")
"False"
>>> label_class("Cc1ccc2c(c1)/C(=C/c1cccnc1)CC2")
"False"
>>> label_class("Brc1ccc2c(c1)CC/C2=C/c1cccnc1")
"True"

Turning now to a further record.
Exercise: Reported inhibition at 2.5 µM reaches at least 20% for Clc1cccc2c1CC/C2=C\c1cccnc1 ?
Solution: False

* * *

- TARGET_ENTITY: Cytochrome P450 11B2, mitochondrial (Homo sapiens, UniProt P19099)
- Sequence (P19099 whole entry): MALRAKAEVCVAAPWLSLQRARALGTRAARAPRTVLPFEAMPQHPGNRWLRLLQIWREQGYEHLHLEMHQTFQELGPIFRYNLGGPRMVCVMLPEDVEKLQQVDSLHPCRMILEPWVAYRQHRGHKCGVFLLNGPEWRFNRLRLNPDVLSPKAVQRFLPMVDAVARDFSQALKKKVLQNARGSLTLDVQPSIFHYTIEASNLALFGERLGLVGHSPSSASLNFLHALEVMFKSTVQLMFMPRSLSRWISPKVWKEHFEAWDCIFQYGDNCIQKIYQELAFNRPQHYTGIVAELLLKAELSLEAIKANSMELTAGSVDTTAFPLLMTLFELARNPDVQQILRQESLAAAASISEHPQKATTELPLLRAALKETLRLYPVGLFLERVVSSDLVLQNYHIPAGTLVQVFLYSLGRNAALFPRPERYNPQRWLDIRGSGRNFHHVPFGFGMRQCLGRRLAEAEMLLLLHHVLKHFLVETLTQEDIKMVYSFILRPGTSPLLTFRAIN
- TEST_METHOD_NOTES: In vitro inhibitory concentration against human CYP11B2 expressed in V79 MZh hamster fibroblasts incubated with 100 nM of substrate deoxy-corticosterone in presence of the compound
QUANTITY_MEASURED: pIC50
// pIC50: -log10(molar conc.)

>>> reported("CC1C/C(=C/c2cccnc2)c2ccccc21 (configuration not stated)")
7.39

Let us move to another entry and its pIC50.
Exercise: Give a short answer stating reported pIC50 for C(=C1/CCc2ccccc21)/c1cccnc1 .
Solution: 7.96

* * *

- Tested on: CYP11B2 (Homo sapiens)
- TEST_METHOD_NOTES: In vitro inhibitory concentration against human CYP11B2 expressed in V79 MZh hamster fibroblasts incubated with 100 nM of substrate deoxy-corticosterone in presence of the compound
- PARTICULARS: V79 MZh hamster fibroblasts expressing human CYP11B2, probe deoxy-corticosterone
QUANTITY_MEASURED: pIC50
# reply with the number alone; pIC50 is -log10 of concentration in mol/L

Exercise: In one line, give reported pIC50 of the entry Fc1ccc2c(c1)CC/C2=C/c1cccc2cnccc12 .
Solution: 7.59
